B1: DnaJ homolog subfamily C member 5, residues 16 to 77; numbered along this chain, Q9H3Z4 (parent)
chain: LYHVLGLDKNATSDDIKKSYRKLALKYHPDKNPDNPEAADKFKEINNAHAILTDATKRNIYD

Variants of: B1
Assay: abundance fitness (aPCA) (normalised: wild type 0, dead -1); higher = more abundant; growth selection in yeast, the domain comes from the species named
Details: Homo sapiens
Label rule, in plain words: abundance fitness of -0.3 and up is YES, under -0.3 is NO.

Observe how each entry below is paired with its result.
{"mutation notation": "A11S", "label value": "NO"}
{"mutation notation": "K22G", "label value": "YES"}

Test whether the variant R58P records abundance fitness of -0.3 or higher.
YES

Does L23V have a reported abundance fitness of at least -0.3?
NO

Please indicate if the recorded abundance fitness for E37G meets or exceeds -0.3.
YES

Exam item: decide whether the reported abundance fitness for A39T is at least -0.3.
NO

Is reported abundance fitness greater than or equal to -0.3 here: I60Y
YES

Could you verify whether the entry I51C shows abundance fitness of no less than -0.3?
YES

Does abundance fitness meet or surpass -0.3 for L23I ?
NO

Does N10L have a reported abundance fitness of at least -0.3?
NO
